Experiment: MM1S cell viability effects, profiling panel, calcein-AM fluorescence, 48 h, basal (AID 1165);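 further: viability of MM1S multiple myeloma cells under basal unstimulated conditions; test concentration not given here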
Conditions: higher = more signal
Measurement type: z-score
Give the value as a plain number.

Request the reported z-score associated with "CC(C)(C)OC(=O)CC[C@]1(C(=O)O)N=C(c2ccc(OCCCO)cc2)O[C@H]1c1ccccc1" 0.55

# repeat for "COc1ccc([Si](C)(C)[C@H]2[C@H](CCn3cc([C@H](O)c4ccccc4)nn3)O[C@@]3(C(=O)N(Cc4cccc(N5C(=O)c6cccc7cccc5c67)c4)c4ccccc43)[C@@H]2C)cc1" -0.342

# repeat for CC=CC(O)C1C=CC2C(=O)N(c3ccccc3)C(=O)C2N1Nc1ccccc1 (stereo not drawn) 0.214

# repeat for O=C1OCC=C[C@H]2OC34C=CCN(Cn5nnc6ccccc65)C(=O)[C@H]3N(CCCCCCO)C(=O)[C@@H]4[C@@H]12 (stereo partly drawn) 1.15

# repeat for "COC(=O)[C@@]1(Cc2ccccc2)[C@H]2c3cc(C(=O)N4CCCC4)n(C[C@H](O)CO)c3C[C@H]2CN1C(=O)c1ccccc1" 0.37

# repeat for "NC(N)=NCc1cn(CCc2c[nH]c3ccccc23)nn1" -0.613

# repeat for COC(=O)C1(Cc2ccccc2)C=C2C(=C(c3ccccc3)C(=O)C2C)CN1 (stereo not drawn) -0.451

# repeat for O=C1NC(=O)C2C1C=CC(C(O)c1ccc3c(c1)OCO3)N2Nc1ccccn1 (stereo not drawn) 0.0178

---

Assay: RPMI8226 myeloma cell viability, profiling panel, resazurin fluorescence, basal, 24 h, PK04 Diversity Set (AID 1180);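 further: RPMI8826 multiple myeloma cell line at 5000 cells per well; test concentration not given here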
Settings: higher = more signal
So I've got a bunch of molecules here, and I need their z-score values.
Give the value as a plain number.

Request the reported z-score associated with "COc1ccc([Si](C)(C)[C@H]2[C@H](CCn3cc([C@H](O)c4ccccc4)nn3)O[C@@]3(C(=O)N(Cc4ccc(N5CCOC5=O)cc4)c4ccccc43)[C@@H]2C)cc1" 0.129

# repeat for CC1CC/C=C\[C@H]2OC34C=CCN(CCN5CCOCC5)C(=O)[C@H]3N(CCO)C(=O)[C@@H]4C2C(=O)O1 (some centres undefined) 0.119

# repeat for O=C1NC(=O)C2C1C=CC(C(O)c1ccc(Br)cc1)N2Nc1ccccn1 (centres undefined) -0.913

# repeat for "O=C1O[C@@H](c2ccccc2)[C@@H](c2ccccc2)N2[C@@H](c3ccc(O)cc3)[C@]3(C(=O)Nc4ccc(C#CC5=CCCCC5)cc43)[C@@H](C(=O)N3CCN(c4ncccn4)CC3)[C@H]12" -0.385

---

Test: basal RPMI8226 mitochondrial membrane potential changes, profiling panel, cell-based, JC-1 fluorescence, 24 h, 100 nL compound (AID 1169); further: test concentration not given here
Conditions: RPMI8226 myeloma, JC-1 mitochondrial potential fluorescence, higher = more signal
Measurement type: z-score
Give the value as a plain number.

Request the reported z-score associated with "C=CC[C@H](OC(=O)Nc1ccc(OC)cc1)c1ccc(O)c2ccccc12" -1.02

# repeat for "COc1c(C)cc(-c2cc3c(c(Cc4ccccc4)n2)[Si](C(C)C)(C(C)C)OC3)cc1C" 0.0185

# repeat for "COC(=O)[C@@]1(Cc2ccccc2)[C@H]2c3cc(C(=O)N4CCCC4)n(Cc4ccsc4Br)c3C[C@H]2CN1C(=O)c1ccccc1" -0.804

# repeat for "C=C(COC)/C(=C/C[C@@H](OC(=O)c1ccncc1)c1ccc(CO)o1)c1cnc2ccccc2c1" 0.0268

# repeat for "C=C(CCCC)C(=O)CC[C@@H](OC(=O)c1cccnc1)c1ccccc1OCCO" -0.754

# repeat for O=C1NC(=O)C2C1C=CC(C(O)c1cc(C(F)(F)F)cc(C(F)(F)F)c1)N2Nc1ccc(Cl)cc1Cl (configuration not stated) -0.387

# repeat for "CCC[C@@H]1C[C@@]1(CCC)[C@@H](NP(=O)(c1ccccc1)c1ccccc1)c1ccc(Cl)cc1" -0.618

# repeat for Cc1ccc(C(C)CC(O)C2C=CC3C(=O)N(c4ccccc4)C(=O)C3N2Nc2ccc(C(C)C)cc2)o1 (configuration not stated) -0.778

# repeat for O=C1C2C=CC(C(O)c3cc(C(F)(F)F)cc(C(F)(F)F)c3)N(Nc3ccc([N+](=O)[O-])cc3)C2C(=O)N1c1ccccc1 (configuration not stated) -1.03

# repeat for "O=C1c2ccccc2[C@@]2(Cc3ccccc3N(C3CC3)C2=O)[C@H](c2ccc(CO)cc2)N1C1CCCCC1" 0.818

# repeat for "COc1ccccc1CN1C(=O)c2ccccc2[C@@H](C(=O)NC(C)C)[C@@H]1c1ccc(CO)cc1" 0.652

# repeat for [N-]=[N+]=NCc1ccccc1C[C@]1(C(=O)NCC(O)CO)N=C(c2ccc(OCCCO)cc2)O[C@H]1c1ccccc1CN=[N+]=[N-] (some centres not stated) -1.02

# repeat for "CCCNC(=O)[C@@]1(c2ccc([N+](=O)[O-])cc2)CC(=O)N(C2CCCCC2)[C@@H]1c1ccc(CO)cc1I" -0.677

# repeat for C=CC1c2cc(O)c(OC)cc2CCN1Cc1sc2ccccc2c1Cl (configuration not stated) -0.811

# repeat for O=C1OC[C@@H](c2ccccc2)N2CC(/C=C/c3ccccc3)=CC12 (some centres not stated) -0.306

# repeat for CC(C)OC(=O)CC(=O)CC(O)c1cccc(C#N)c1 (configuration not stated) 0.105

# repeat for "O=C(N1CCCCC1)[C@@]1(Cc2ccccc2)COC(c2ccc(OCCCO)cc2)=N1" -1.08

# repeat for "COc1ccc([Si](C)(C)[C@H]2[C@H](CCn3cc([C@H](O)c4ccccc4)nn3)O[C@@]3(C(=O)N(Cc4ccc(N5CCC5=O)cc4)c4ccccc43)[C@@H]2C)cc1" -0.445

# repeat for "COC(=O)[C@@]1(Cc2ccccc2)[C@H]2c3cc(C(=O)N4CCCC4)[nH]c3C[C@H]2CN1C(=O)c1ccccc1" -0.786

# repeat for "C=CCOC(=O)[C@@H]1[C@H]2C(=O)O[C@H](c3ccccc3)[C@H](c3ccccc3)N2[C@H](c2ccc(OCCOC(=O)[C@H]3C[C@H]4C(=O)N[C@@H](CC(C)C)C(=O)N4[C@H]3c3ccc(O)cc3)cc2)[C@@]12C(=O)Nc1ccc(I)cc12" -0.952

# repeat for CC=CC(O)C1C=CC2C(=O)N(c3ccccc3)C(=O)C2N1Nc1ccc([N+](=O)[O-])cc1 (configuration not stated) 0.592

# repeat for C=CCC(OC(C)=O)[C@@H]1[C@@H](N(Cc2cc3ccccc3o2)C(=O)c2ccc(C)cc2)c2cc(OCCCO)ccc2N1C(=O)Cc1ccc2ccccc2c1 (some centres not stated) 0.0031

# repeat for "C=C(CCCC)/C(=C/C[C@@H](OC(C)=O)c1ccc(CO)o1)c1cc(C(=O)OC)ccc1OC" 0.507

# repeat for "NCCCCCNC(=O)[C@@H]1C[C@@H]2C(=O)N[C@@H](CCCCN)C(=O)N2[C@@H]1c1cccc(OCCO)c1" -0.698

# repeat for CC(CO)N1C(=O)[C@@H]2C3C(=O)OCCC/C=C\[C@H]3OC23C=CCN(Cn2nnc4ccccc42)C(=O)[C@@H]13 (some centres not stated) 0.222

# repeat for "COCCCNC(=O)[C@]1(CCC(=O)OC(C)(C)C)N=C(c2ccc(OCCCO)cc2)O[C@@H]1c1ccccc1" 0.86

# repeat for "CN(C)C(=O)[C@]1(CCC(=O)OC(C)(C)C)N=C(c2ccc(OCCCO)cc2)O[C@@H]1c1ccccc1" -0.368

# repeat for "C=CCN1C(=O)[C@]2(CC=C)N=C(c3ccc(OCCCO)cc3)O[C@@H]2c2ccccc21" -1.16

# repeat for "CCCCC(=C=CC[C@@H](O)c1ccc(OCCO)cc1)C[C@@H](O)COCc1ccccc1" 0.178

# repeat for "COc1ccc(C#Cc2ccc3c(c2)[C@]2(C(=O)N3)[C@H](C(=O)N3CCc4cc(OC)c(OC)cc4C3)[C@H]3C(=O)O[C@H](c4ccccc4)[C@H](c4ccccc4)N3[C@@H]2c2ccc(O)cc2)cc1" -0.356

# repeat for CN1C(=O)C2C=CC(C(O)c3c(F)cccc3Cl)N(Nc3ccccc3)C2C1=O (configuration not stated) -0.725

# repeat for "O=c1cccc(-c2cccc(Cl)c2)o1" 0.86
